molecular target: CynT2 (Escherichia coli, UniProt P61517); construct: gene can; full-length synthetic gene, 220 residues, no signal peptide, N-terminal His6 fusion (pET100D-Topo), expressed in E. coli BL21(DE3) codon plus, about 29 kDa subunit, tag removal not mentioned; assay: stopped-flow CO2 hydration assay; type: biochemical; details: read-out: KI (mM) ^1 / CynT2
Sequence (P61517 whole entry, the tested form may be a part): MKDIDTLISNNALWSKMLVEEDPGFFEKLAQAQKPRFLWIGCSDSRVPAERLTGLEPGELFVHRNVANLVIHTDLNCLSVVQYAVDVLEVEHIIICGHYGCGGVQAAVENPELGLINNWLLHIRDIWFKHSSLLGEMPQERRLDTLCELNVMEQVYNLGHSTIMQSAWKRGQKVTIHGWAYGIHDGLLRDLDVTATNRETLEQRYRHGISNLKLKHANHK
molecules and their reported Ki

{"columns": ["molecule", "Ki"],
 "data": [
  ["[O]=[V]([OH])([OH])[O][V](=[O])([OH])[OH] [V2O7^2−]", "> 10 mM"],
  ["[O]=[Re](=[O])(=[O])[OH] [ReO4^−]", "> 10 mM"],
  ["[O-][Cl+3]([O-])([O-])O [ClO4^−]", "> 100 mM"],
  ["I [I^−]", "> 10 mM"],
  ["O=P(O)(O)OP(=O)(O)O [P2O7^2−]", "> 10 mM"],
  ["O=S(=O)(O)C(F)(F)F [CF3SO3^−]", "> 10 mM"]
]}
